System: Escherichia coli
Test: Antimicrobial activity against Escherichia coli K-12 3-AG300 harboring AcrB-615-628MexB-M626I mutant gene
Assay type: functional
Measured Attribute: MIC (µg/mL)
Give the number; µg/mL is assumed, so skip it.

Fill blank: measured MIC of the compound CC(=O)NC[C@H]1CN(c2ccc(N3CCOCC3)c(F)c2)C(=O)O1 is ____.
1020

Item CC[C@H]1OC(=O)[C@H](C)[C@@H](O[C@H]2C[C@@](C)(OC)[C@@H](O)[C@H](C)O2)[C@H](C)[C@@H](O[C@@H]2O[C@H](C)C[C@H](N(C)C)[C@H]2O)[C@](C)(OC)C[C@@H](C)C(=O)[C@H](C)[C@@H](O)[C@]1(C)O has what recorded MIC?
64

Quick check: MIC of CN(C)c1ccc(O)c2c1C[C@H]1C[C@H]3[C@H](N(C)C)C(O)=C(C(N)=O)C(=O)[C@@]3(O)C(O)=C1C2=O ?
4

Which MIC is listed for CC[C@H]1OC(=O)[C@H](C)[C@@H](O[C@H]2C[C@@](C)(OC)[C@@H](O)[C@H](C)O2)[C@H](C)[C@@H](O[C@@H]2O[C@H](C)C[C@H](N(C)C)[C@H]2O)[C@](C)(O)C[C@@H](C)C(=O)[C@H](C)[C@@H](O)[C@]1(C)O ?
128

So what does the record say about MIC for CO[C@@H]1[C@@H](OC(N)=O)[C@@H](O)[C@H](Oc2ccc3c(O)c(NC(=O)c4ccc(O)c(CC=C(C)C)c4)c(=O)oc3c2C)OC1(C)C ?
512

Reported MIC for CC[C@H]1OC(=O)[C@H](C)[C@@H](O[C@H]2C[C@@](C)(OC)[C@@H](O)[C@H](C)O2)[C@H](C)[C@@H](O[C@@H]2O[C@H](C)C[C@H](N(C)C)[C@H]2O)[C@](C)(O)C[C@@H](C)CN(C)[C@H](C)[C@@H](O)[C@]1(C)O : what is it?
8

Param item = CCBr ; retrieve measured MIC.
512

Reported MIC for Cc1onc(-c2ccccc2)c1C(=O)N[C@@H]1C(=O)N2[C@@H]1SC(C)(C)[C@@H]2C(=O)O : what is it?
256

Consider the compound shown here: O=C(N[C@H](CO)[C@H](O)c1ccc([N+](=O)[O-])cc1)C(Cl)Cl What is its recorded MIC?
8

----------
Test system: Escherichia coli
Assay: Antimicrobial activity against Escherichia coli K-12 3-AG300 harboring AcrB-615-628MexB-S623N mutant gene
Assay type: functional
Measured Attribute: log10 MIC (log10 of the value in µg/mL)
Base-10 log of MIC, unit µg/mL.

Smiles Record	Readout Number
CCBr	2.71
CC[C@H]1OC(=O)[C@H](C)[C@@H](O[C@H]2C[C@@](C)(OC)[C@@H](O)[C@H](C)O2)[C@H](C)[C@@H](O[C@@H]2O[C@H](C)C[C@H](N(C)C)[C@H]2O)[C@](C)(O)C[C@@H](C)CN(C)[C@H](C)[C@@H](O)[C@]1(C)O	1.20
CC[C@H]1OC(=O)[C@H](C)[C@@H](O[C@H]2C[C@@](C)(OC)[C@@H](O)[C@H](C)O2)[C@H](C)[C@@H](O[C@@H]2O[C@H](C)C[C@H](N(C)C)[C@H]2O)[C@](C)(OC)C[C@@H](C)C(=O)[C@H](C)[C@@H](O)[C@]1(C)O	2.11
CN(C)c1ccc(O)c2c1C[C@H]1C[C@H]3[C@H](N(C)C)C(O)=C(C(N)=O)C(=O)[C@@]3(O)C(O)=C1C2=O	0.30

So what's the measured log10 MIC for this one? CC(=O)NC[C@H]1CN(c2ccc(N3CCOCC3)c(F)c2)C(=O)O1
3.01

For the compound shown here, CO[C@@H]1[C@@H](OC(N)=O)[C@@H](O)[C@H](Oc2ccc3c(O)c(NC(=O)c4ccc(O)c(CC=C(C)C)c4)c(=O)oc3c2C)OC1(C)C , give the reported log10 MIC.
3.01

Entry CC[C@H]1OC(=O)[C@H](C)[C@@H](O[C@H]2C[C@@](C)(OC)[C@@H](O)[C@H](C)O2)[C@H](C)[C@@H](O[C@@H]2O[C@H](C)C[C@H](N(C)C)[C@H]2O)[C@](C)(O)C[C@@H](C)C(=O)[C@H](C)[C@@H](O)[C@]1(C)O : reported log10 MIC = ?
2.41

Quick check: log10 MIC of Cc1onc(-c2ccccc2)c1C(=O)N[C@@H]1C(=O)N2[C@@H]1SC(C)(C)[C@@H]2C(=O)O ?
2.71
